Target: SARS-COV-2 RBD-MMH (SARS-COV-2 RBD extracellular domain with C-terminal myc-myc-hexahistidine tag) (SARS-CoV-2)
measurement_name: t½ at pH 6.0

>  <binder>
mAb14234 (antibody, V domains shown) VH: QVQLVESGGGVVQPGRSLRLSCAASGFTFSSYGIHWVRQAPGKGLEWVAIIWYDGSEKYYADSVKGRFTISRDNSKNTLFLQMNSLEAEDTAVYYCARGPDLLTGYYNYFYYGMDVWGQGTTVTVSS VL: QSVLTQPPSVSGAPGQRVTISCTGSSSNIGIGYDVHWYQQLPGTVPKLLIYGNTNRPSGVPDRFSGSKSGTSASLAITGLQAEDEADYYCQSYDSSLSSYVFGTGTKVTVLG

>  <result>
8.1 min

$$$$
